# System: Staphylococcus aureus
# Assay explanation: Antibacterial activity against fluoroquinolone-resistant Staphylococcus aureus 1095
# Format: functional
Readout name: MIC (mg/L)
Dear colleague, please return just the value in mg/L, with no unit written.

Input line: Quick check: MIC on Staphylococcus aureus, item COc1ccc2nccc([C@@H](O)CC[C@@H]3CCN(C4CC(c5c(F)cccc5F)C4)C[C@@H]3C(=O)O)c2c1 (stereo partly drawn) ?
Output line: 0.25

Input line: Record: COc1ccc2nccc([C@@H](O)CC[C@@H]3CCN(C4CC(c5ccccc5SC)C4)C[C@@H]3C(=O)O)c2c1 (stereo partly drawn)
Output line: 2

Input line: For COc1ccc2nccc([C@@H](O)CC[C@@H]3CCN(C4CC(c5cc(F)ccc5C)C4)C[C@@H]3C(=O)O)c2c1 (stereo partly drawn) then?
Output line: 0.5

Input line: What would you report for COc1ccc2nccc([C@@H](O)CC[C@@H]3CCN(C4CC(c5ccc(F)c(F)c5F)C4)C[C@@H]3C(=O)O)c2c1 (stereo partly drawn) ?
Output line: 0.5

Input line: Also need COc1ccc2nccc(C(O)CC[C@@H]3CCN(C/C=C/c4cc(F)ccc4F)C[C@@H]3C(=O)O)c2c1 (stereo partly drawn) , thanks.
Output line: 0.5

Input line: Also check COc1ccc2nccc([C@@H](O)CC[C@@H]3CCN(C4CC(c5cc(F)ccc5F)C4)C[C@@H]3C(=O)O)c2c1 (stereo partly drawn)
Output line: 0.5

* * *

# Target of assay: DNA gyrase (Staphylococcus aureus, UniProt P0A0K8+P20831)
# Assay explanation: Inhibition of Staphylococcus aureus DNA gyrase
Readout name: log10(IC50) (log10 of the value in µM)
Log scale reminder: IC50 in µM, then log10 taken.

Input line: Given COc1ccc2nccc([C@@H](O)CC[C@@H]3CCN(C4CC(c5cc(F)cc(F)c5F)C4)C[C@@H]3C(=O)O)c2c1 (stereo not given in full) , state its recorded log10(IC50).
Output line: 0.19

Input line: Please give the result for COc1ccc2nccc([C@@H](O)CC[C@@H]3CCN(C4CC(c5cccc(C(F)(F)F)c5F)C4)C[C@@H]3C(=O)O)c2c1 (stereo not given in full) too.
Output line: 0.80

Input line: Record: COc1ccc2nccc([C@@H](O)CC[C@@H]3CCN(C4CC(c5ncc(C)o5)C4)C[C@@H]3C(=O)O)c2c1 (stereo not given in full)
Output line: 0.80

Input line: What about this compound? COc1ccc2nccc([C@@H](O)CC[C@@H]3CCN(C4CC(c5ccncn5)C4)C[C@@H]3C(=O)O)c2c1 (stereo not given in full)
Output line: 1.28

Input line: Then COc1ccc2ncc(F)c([C@@H](O)CC[C@@H]3CCN(CCSc4cccs4)C[C@@H]3C(=O)O)c2c1 ?
Output line: 0.19

Input line: // next record COc1ccc2nccc([C@@H](O)CC[C@@H]3CCN(C4CC(c5c(OC)ccc(F)c5F)C4)C[C@@H]3C(=O)O)c2c1 (stereo not given in full)
Output line: 0.19

Input line: Cool, now COc1ccc2nccc([C@@H](O)CC[C@@H]3CCN(C4CC(c5ccc(F)cc5F)C4)C[C@@H]3C(=O)O)c2c1 (stereo not given in full)
Output line: 0.97

Input line: How about COc1ccc(C2CC(N3CC[C@@H](CC[C@H](O)c4ccnc5ccc(OC)cc45)[C@@H](C(=O)O)C3)C2)c(F)c1 (stereo not given in full) ?
Output line: 1.70

Input line: Try the compound COc1ccc2nccc([C@@H](O)CC[C@@H]3CCN(C4CC(c5cc(C)ccc5F)C4)C[C@@H]3C(=O)O)c2c1 (stereo not given in full)
Output line: 0.19

Input line: Another compound to look at: COc1ccc2nccc([C@@H](O)CC[C@@H]3CCN(C4CC(c5ccccc5SC)C4)C[C@@H]3C(=O)O)c2c1 (stereo not given in full)
Output line: 0.50

Input line: Can you check COc1ccc2nccc([C@@H](O)CC[C@@H]3CCN(C4CC(c5c(F)cccc5Cl)C4)C[C@@H]3C(=O)O)c2c1 (stereo not given in full) next?
Output line: 0.67

Input line: Next entry: COc1ccc2nccc([C@@H](O)CC[C@@H]3CCN(C4CC(c5cccc(F)c5)C4)C[C@@H]3C(=O)O)c2c1 (stereo not given in full)
Output line: 0.19

Input line: Repeat for the following compound: COc1ccc2nccc([C@@H](O)CC[C@@H]3CCN(C4CC(c5ccc(F)c(F)c5F)C4)C[C@@H]3C(=O)O)c2c1 (stereo not given in full)
Output line: 0.50

Input line: Now this one: COc1ccc2nccc([C@@H](O)CC[C@@H]3CCN(C4CC(c5cccc(SC)c5)C4)C[C@@H]3C(=O)O)c2c1 (stereo not given in full)
Output line: 0.67

Input line: Same question for COc1ccc2nccc([C@@H](O)CC[C@@H]3CCN(C4CC(c5ccccc5C(F)(F)F)C4)C[C@@H]3C(=O)O)c2c1 (stereo not given in full) please.
Output line: 0.19

Input line: Next entry: COc1ccc2nccc([C@@H](O)CC[C@@H]3CCN(C4CC(c5c(F)cccc5F)C4)C[C@@H]3C(=O)O)c2c1 (stereo not given in full)
Output line: 0.47

Input line: Another compound to look at: COc1ccc2nccc([C@@H](O)CC[C@@H]3CCN(C4CC(c5c(F)cccc5C(F)(F)F)C4)C[C@@H]3C(=O)O)c2c1 (stereo not given in full)
Output line: 1.28

Input line: How about COc1ccc2nccc([C@@H](O)CC[C@@H]3CCN(C4CC(c5cc(F)cc(F)c5)C4)C[C@@H]3C(=O)O)c2c1 (stereo not given in full) ?
Output line: 0.19

Input line: Okay, and COc1ccc2nccc([C@@H](O)CC[C@@H]3CCN(C4CC(c5cc(F)c(F)cc5F)C4)C[C@@H]3C(=O)O)c2c1 (stereo not given in full) ?
Output line: 0.19

Input line: Check COc1ccc2nccc([C@@H](O)CC[C@@H]3CCN(C4CC(c5cc(Cl)ccc5F)C4)C[C@@H]3C(=O)O)c2c1 (stereo not given in full) too.
Output line: 0.19

Input line: Next compound up: COc1ccc2nccc([C@@H](O)CC[C@@H]3CCN(C4CC(c5cc(F)ccc5F)C4)C[C@@H]3C(=O)O)c2c1 (stereo not given in full)
Output line: 0.48

Input line: Continue with COc1ccc2nccc([C@@H](O)CC[C@@H]3CCN(C4CC(c5cc(F)c(OC)cc5F)C4)C[C@@H]3C(=O)O)c2c1 (stereo not given in full)
Output line: 1.70

Input line: Repeat for the following compound: COc1ccc2nccc(C(O)CC[C@@H]3CCN(C/C=C/c4cc(F)ccc4F)C[C@@H]3C(=O)O)c2c1 (stereo not given in full)
Output line: 0.88

Input line: For COc1ccc2nccc([C@@H](O)CC[C@@H]3CCN(C4CC(c5ccc(F)c(C#N)c5)C4)C[C@@H]3C(=O)O)c2c1 (stereo not given in full) then?
Output line: 0.50

Input line: Also check COc1ccc2nccc([C@@H](O)CC[C@@H]3CCN(C4CC(c5ccno5)C4)C[C@@H]3C(=O)O)c2c1 (stereo not given in full)
Output line: 0.50

Input line: Do the same for COc1ccc2nccc([C@@H](O)CC[C@@H]3CCN(C4CC(c5cc(F)c(Cl)cc5F)C4)C[C@@H]3C(=O)O)c2c1 (stereo not given in full) please
Output line: 0.67

Input line: And for COc1ccc2nccc([C@@H](O)CC[C@@H]3CCN(C4CC(c5cc(F)ccc5C(F)(F)F)C4)C[C@@H]3C(=O)O)c2c1 (stereo not given in full) ?
Output line: 0.97

Input line: And what about the compound COc1ccc2nccc([C@@H](O)CC[C@@H]3CCN(C4CC(c5cccc(C#N)c5)C4)C[C@@H]3C(=O)O)c2c1 (stereo not given in full) ?
Output line: 0.97

Input line: Now the same for COc1ccc2nccc([C@@H](O)CC[C@@H]3CCN(C/C=C/c4ccccc4)C[C@@H]3C(=O)O)c2c1
Output line: 0.67

* * *

# Assay explanation: Inhibition of Streptococcus pneumoniae DNA gyrase
Readout name: pIC50
Scale note: pIC50 = -log10(concentration in M).

Input line: Look at this compound and give its reported pIC50. COc1ccc2nccc([C@@H](O)CC[C@@H]3CCN(C4CC(c5ccccc5)C4)C[C@@H]3C(=O)O)c2c1 (stereo not given in full)
Output line: 5.05

Input line: And for COc1ccc2nccc([C@@H](O)CC[C@@H]3CCN(CCSc4cccs4)C[C@@H]3C(=O)O)c2c1 ?
Output line: 5.23

Input line: Follow-up item: COc1ccc2nccc(C(O)CC[C@@H]3CCN(C/C=C/c4cc(F)ccc4F)C[C@@H]3C(=O)O)c2c1 (stereo not given in full)
Output line: 5.20

Input line: Follow-up item: COc1ccc2nccc([C@H](O)CC[C@@H]3CCN(C4CC(c5ccccc5)C4)C[C@@H]3C(=O)O)c2c1 (stereo not given in full)
Output line: 4.66

Input line: Next: COc1ccc2nccc(C(O)CC[C@@H]3CCN(C[C@@H]4C[C@H]4c4ccccc4)C[C@@H]3C(=O)O)c2c1 (mixture of isomers)
Output line: 4.30
